- target_or_system: Rabbit muscle Gp (recombinant rabbit Gp) (Oryctolagus cuniculus)
- Construct: gene PYGM; called recombinant rabbit Gp in the methods
- Sequence (P00489 2-843): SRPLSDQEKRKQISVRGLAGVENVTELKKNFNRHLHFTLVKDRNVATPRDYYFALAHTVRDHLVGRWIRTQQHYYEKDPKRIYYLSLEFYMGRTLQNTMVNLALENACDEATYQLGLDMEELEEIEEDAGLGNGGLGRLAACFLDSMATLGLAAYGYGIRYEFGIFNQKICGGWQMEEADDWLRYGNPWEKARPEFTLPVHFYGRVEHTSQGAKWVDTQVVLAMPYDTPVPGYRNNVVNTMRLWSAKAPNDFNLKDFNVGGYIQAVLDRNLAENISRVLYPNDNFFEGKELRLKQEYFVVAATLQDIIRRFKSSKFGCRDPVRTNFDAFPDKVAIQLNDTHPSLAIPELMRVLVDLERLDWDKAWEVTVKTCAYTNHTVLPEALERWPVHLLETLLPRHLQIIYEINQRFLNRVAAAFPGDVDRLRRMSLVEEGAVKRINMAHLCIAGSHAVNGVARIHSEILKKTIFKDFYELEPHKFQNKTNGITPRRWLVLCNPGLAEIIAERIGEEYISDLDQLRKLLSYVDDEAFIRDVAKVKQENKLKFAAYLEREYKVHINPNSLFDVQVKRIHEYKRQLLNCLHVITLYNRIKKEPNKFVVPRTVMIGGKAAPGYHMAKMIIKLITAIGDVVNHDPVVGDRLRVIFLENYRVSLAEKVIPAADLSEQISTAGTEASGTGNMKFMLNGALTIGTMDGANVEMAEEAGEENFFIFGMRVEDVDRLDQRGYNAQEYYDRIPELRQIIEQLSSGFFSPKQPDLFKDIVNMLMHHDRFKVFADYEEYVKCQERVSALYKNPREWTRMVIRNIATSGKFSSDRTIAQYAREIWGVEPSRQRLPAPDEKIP
- assay_details: glycogen degradation coupled to phosphoglucomutase and glucose-6-phosphate dehydrogenase, NADPH at […] nm
- Assay type: biochemical
- run_parameters: read-out: IC50/LC50 (μM) / Gp / Rabbit muscle

{"compound": "OC(c1cc(C(F)(F)F)nc2c(C(F)(F)F)cccc12)C1CCCCN1 (centres unmarked) [MEF, mefloquine]", "limit_operator": ">", "IC50 / µM": 438}
{"compound": "C[C@H]1[C@H](C)CC[C@]2(C(=O)O)CC[C@]3(C)C(=CC[C@@H]4[C@@]5(C)CC[C@H](O)C(C)(C)[C@@H]5CC[C@]43C)[C@H]12 [UA, ursolic acid]", "limit_operator": "=", "IC50 / µM": 5.47}
